- Test system: MOLT/4F CELL DNA
- Assay summary: Incorporation of radiolabelled precursors into Molt/4F cell DNA
- Format: cell-based, human
- Experimental setup: Homo sapiens; Molt/4F cell DNA, 20-24 hours; read-out: ID50 (1',2'-3H)dUrd incorporation
Reported metric: IC50 (µM)

Molecule	Reported metric	Units	Result modifier	Quantitative result
Nc1ccn([C@H]2CC[C@@H](CO)O2)c(=O)n1 [ddCyd, 2′,3′-Dideoxycytidine]	IC50	µM	=	32
CCc1cn([C@H]2C[C@H](N=[N+]=[N-])[C@@H](CO)O2)c(=O)[nH]c1=O [AzddEtUrd, 3′-azido-2′,3′-dideoxy-5-ethyluridine]	IC50	µM	>	1000
CCc1cn([C@H]2C[C@H](F)[C@@H](CO)O2)c(=O)[nH]c1=O [FddEtUrd, 3′-fluoro-2′,3′-dideoxy-5-ethyluridine]	IC50	µM	>	1000
Nc1ccn([C@H]2C[C@H](F)[C@@H](CO)O2)c(=O)n1 [FddCyd, 3′-fluoro-2′,3′-dideoxycytidine]	IC50	µM	=	27.3
CCc1cn([C@H]2CC[C@@H](CO)O2)c(=O)[nH]c1=O [ddEtUrd, 2′,3′-Dideoxy-5-ethyluridine]	IC50	µM	>	1000
O=c1ccn([C@H]2C[C@H](F)[C@@H](CO)O2)c(=O)[nH]1 [FddUrd, 3′-fluoro-2′,3′-dideoxyuridine]	IC50	µM	=	16
O=c1ccn([C@H]2CC[C@@H](CO)O2)c(=O)[nH]1 [ddUrd, 2′-3′-dideoxyuridine]	IC50	µM	>	1000
[N-]=[N+]=N[C@H]1C[C@H](n2ccc(=O)[nH]c2=O)O[C@@H]1CO [AzddUrd, 3′-azido-2′,3′-dideoxyuridine]	IC50	µM	=	172
